All figures here come from the supplement of paper PMC6555819.

Test system: PPARg:RXRa 90nM:30nM, anti-RXR (NR concentration 90 nM, RXRa partner concentration 30 nM)
Test: PBM binding z-score (relative to random genomic background probes); higher = stronger binding; sequences stand for … in GC…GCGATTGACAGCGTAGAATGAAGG
endpoint: PBM binding z-score

### Prompt Specify PBM binding z-score for `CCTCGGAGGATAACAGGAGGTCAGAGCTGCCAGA` and stop.
### Response -0.596

### Prompt Specify PBM binding z-score for `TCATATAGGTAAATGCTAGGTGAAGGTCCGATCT` and stop.
### Response 2.91

### Prompt Specify PBM binding z-score for `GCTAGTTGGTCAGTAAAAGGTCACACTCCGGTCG` and stop.
### Response 3.7

### Prompt Specify PBM binding z-score for `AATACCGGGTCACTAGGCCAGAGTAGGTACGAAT` and stop.
### Response 4.9

### Prompt Specify PBM binding z-score for `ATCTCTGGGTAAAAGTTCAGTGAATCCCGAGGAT` and stop.
### Response 9.04

### Prompt Specify PBM binding z-score for `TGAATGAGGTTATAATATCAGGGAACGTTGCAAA` and stop.
### Response 1.25
